Each record here notes measured IC50.
# Tested on: MCF7
# Run Description: Cytotoxicity against human MCF7 cells assessed as growth inhibition after 48 hrs by sulforhodamine B assay
# Type: functional, cell-based
# Study Conditions: MCF7, 48 h

Below, 2 compounds whose answers are already recorded.
- Smiles Record: "COC(=O)c1c(OC)cc2cc3c(c(O)c2c1C)C(=O)O[C@@H]3[C@@]1(O)[C@H](O)C(OC)=CC(=O)[C@@H]1OC"
  IC50: "> 100 µM"
- Smiles Record: "COC(=O)c1c(OC)cc2cc3c(c(O)c2c1C)C(=O)O[C@@H]3[C@@]1(O)[C@H](O)C(OC)=CC(=O)[C@@H]1O"
  IC50: "> 100 µM"

Okay, next one:
In: Hello, please tell me recorded IC50 for this one: COC(=O)c1c(OC)cc2cc3c(c(O)c2c1C)C(=O)O[C@H]3[C@@]1(O)[C@H](O)C(OC)=CC(=O)[C@H]1OC
Out: > 100 µM

###

# Tested on: Staphylococcus aureus
# Run Description: Antibacterial activity against methicillin-resistant Staphylococcus aureus 12-28 after 18 hrs by agar dilution method
# Type: functional
# Study Conditions: 12-28, 18 h
Readout: MIC

Below, 3 compounds whose answers are already recorded.
- Smiles Record: "C[C@H]1COc2c(N3CCN(C)CC3)c(F)cc3c(=O)c(C(=O)O)cn1c23.C[C@H]1COc2c(N3CCN(C)CC3)c(F)cc3c(=O)c(C(=O)O)cn1c23.O"
  MIC: "0.25 µg/mL"
- Smiles Record: "COC(=O)c1c(OC)cc2cc3c(c(O)c2c1C)C(=O)O[C@@H]3[C@@]1(O)[C@H](O)C(OC)=CC(=O)[C@@H]1OC"
  MIC: "> 64 µg/mL"
- Smiles Record: "COC(=O)c1c(OC)cc2cc3c(c(O)c2c1C)C(=O)O[C@H]3[C@@]1(O)[C@H](O)C(OC)=CC(=O)[C@H]1OC"
  MIC: "> 64 µg/mL"

Okay, next one:
In: Hello, please tell me recorded MIC for this one: COC(=O)c1c(OC)cc2cc3c(c(O)c2c1C)C(=O)O[C@@H]3[C@@]1(O)[C@H](O)C(OC)=CC(=O)[C@@H]1O
Out: > 64 µg/mL
